- assayDetails: RP, Thermo Scientific Acclaim RSLC 120 C18, 100 × 2.1 mm, 2.2 µm, 30 °C, 0.2 mL/min, estimated dead time 1.1 min; A: 90% water + 10% methanol + 0.01% formic acid + 5 mM ammonium formate, pH 3.61; B: methanol + 0.01% formic acid + 5 mM ammonium formate, pH 3.61; gradient (min/%B) 0/1 1/1 2/39 13/99.9 15/99.9 15.1/1 20.1/1
- measurementConditions: stereoisomer not certain
LC retention time listing for selected compounds.
property: LC retention time (min)

1. CCOP(=O)(OCC)OCC [Phosphate-triethyl]    6.16
2. CCC(C)C1OC2(C=CC1C)CC1CC(CC=C(C)C(OC3CC(OC)C(OC4CC(OC)C(NC)C(C)O4)C(C)O3)C(C)C=CC=C3COC4C(O)C(C)=CC(C(=O)O1)C34O)O2 (centres undefined)    12.4
3. CNC(=N[N+](=O)[O-])NCc1cnc(Cl)s1    4.9
4. CCOP(=S)(NC(C)C)Oc1ccccc1C(=O)OC(C)C (centres undefined)    11.2
5. CCOC(=O)c1ncn2c1CN(C)C(=O)c1cc(F)ccc1-2    6.04
6. CC(N)Cc1cccc(C(F)(F)F)c1 (centres undefined)    5.91
7. CNc1nc(NC(C)C)nc(SC)n1    8.17
8. CC(CN(C)C)CN1c2ccccc2CCc2ccccc21 (centres undefined)    8.31
9. CN1CCC23c4c5ccc(OCCN6CCOCC6)c4OC2C(O)C=CC3C1C5 (centres undefined)    2.73

###

- assayDetails: RP, Thermo Scientific Acclaim RSLC 120 C18, 100 × 2.1 mm, 2.2 µm, 30 °C, 0.2 mL/min, estimated dead time 1.1 min; A: 90% water + 10% methanol + 0.01% formic acid + 5 mM ammonium formate, pH 3.61; B: methanol + 0.01% formic acid + 5 mM ammonium formate, pH 3.61; gradient (min/%B) 0/1 1/1 2/39 13/99.9 15/99.9 15.1/1 20.1/1
- measurementConditions: stereoisomer not certain
LC retention time below 10 min gives False; LC retention time at or above it gives True.

1) Nc1ccc(Cl)cc1C(=O)c1ccccc1    True
2) CC12Cc3cn[nH]c3CC1CCC1C2CCC2(C)C1CCC2(C)O (configuration not stated)    True
3) CN(C)C1C(=O)C(C(N)=O)=C(O)C2(O)C(=O)C3=C(O)c4c(O)ccc(Cl)c4C(C)(O)C3CC12 (configuration not stated)    False
4) CCN1CCCC1CNC(=O)c1c(OC)ccc(Br)c1OC (configuration not stated) [Remoxipride]    False
5) CCOC(=O)NC(=S)Nc1ccccc1NC(=S)NC(=O)OCC [Thiophanate-ethyl]    False
6) CCOP(=S)(OCC)Oc1ccc([N+](=O)[O-])cc1    True
7) O=C1OC(c2ccc(O)cc2)(c2ccc(O)cc2)c2ccccc21    False
8) CN(C)CC(c1ccc(O)cc1)C1(O)CCCCC1 (configuration not stated)    False
9) CCCCOC(=O)COc1ccc(Cl)cc1Cl    True
10) CN1CCN(C2=Nc3cc(Cl)ccc3Nc3ccccc32)CC1    False

###

- assayDetails: RP, Thermo Scientific Acclaim RSLC 120 C18, 100 × 2.1 mm, 2.2 µm, 30 °C, 0.2 mL/min, estimated dead time 1.1 min; A: 90% water + 10% methanol + 0.01% formic acid + 5 mM ammonium formate, pH 3.61; B: methanol + 0.01% formic acid + 5 mM ammonium formate, pH 3.61; gradient (min/%B) 0/1 1/1 2/39 13/99.9 15/99.9 15.1/1 20.1/1
- measurementConditions: stereoisomer not certain
property: LC retention time (min)

1) CC(C)(O)c1ccccc1CCC(SCC1(CC(=O)O)CC1)c1cccc(C=Cc2ccc3ccc(Cl)cc3n2)c1 (stereo not drawn)    13.4
2) CC[N+](CC)(CC(=O)Nc1c(C)cccc1C)Cc1ccccc1    12.3
3) c1nc[nH]n1    1.56
4) CC(C)(C)NCC(O)COc1ccc(NC(=O)NC2CCCCC2)cc1 (stereo not drawn)    6.58
5) CCCc1nn(C)c2c(=O)[nH]c(-c3cc(C(=O)CN4CCN(CC)C(=O)C4)ccc3OCC)nc12    9.09
6) CCCCCCCCn1sccc1=O    10.3
7) CCC(NC)C(=O)c1ccc(C)cc1 (stereo not drawn)    5.04
8) CCCC(=O)Nc1ccc(OCC(O)CNC(C)C)c(C(C)=O)c1 (stereo not drawn)    4.78
9) CC(C)OC(=O)C(O)(c1ccc(Cl)cc1)c1ccc(Cl)cc1 [Chloropropylate]    12.2
10) CCC(CC)OC1C=C(C(=O)O)CC(N)C1NC(C)=O (stereo not drawn) [Oseltamivir-carboxylate]    4.73
11) CCCc1nn(C)c2c(=O)[nH]c(-c3cc(S(=O)(=O)N4CCN(CC)CC4)ccc3OCC)nc12    7.84
12) OC(Cc1ccccc1Cl)(Cn1[nH]cnc1=S)C1(Cl)CC1 (stereo not drawn)    11.2
13) C=CCN1CCC23c4c5ccc(O)c4OC2C(O)C=CC3C1C5 (stereo not drawn)    3.39
